The following compounds are listed with their measured inhibition values.
- targetDesc: Protein S100-A4 (Homo sapiens)
- procedureText: inhibitors of S100A4-myosin IIA peptide binding, primary screen, biochemical, fluorescence polarization, TAMRA-MyoIIA peptide (AID 652163)
- measurementSetup: at 10.7 µM, active compounds read high
Hit rate of the full screen: of about 360,000 compounds, about 500 (0.14%) were called active. The entries come from a sample that favours actives as a whole.
reportedEndpoint: inhibition (%)

compound: CC=Cc1ccc2n(c1=O)C[C@H]1[C@H](CO)[C@@H](C(=O)NCCc3cn(C)cn3)[C@@H]2N1C(=O)CC (mixture of isomers)
targetDesc: Protein S100-A4 (Homo sapiens)
reading: -3.21

compound: NCC[C@H]1CC[C@H](NC(=O)C2CC2)[C@@H](CO)O1
targetDesc: Protein S100-A4 (Homo sapiens)
reading: 4.1

compound: CO[C@H]1CN(C)C(=O)c2cc(NC(=O)Nc3ccccc3F)ccc2OC[C@@H](C)N(CCC(F)(F)F)C[C@@H]1C
targetDesc: Protein S100-A4 (Homo sapiens)
reading: -11.4

compound: C[C@H](CO)N1C[C@H](C)[C@@H](CN(C)CC2CC2)Oc2ccc(NC(=O)CCCN(C)C)cc2CC1=O
targetDesc: Protein S100-A4 (Homo sapiens)
reading: -0.322

compound: C[C@@H]1CCCCO[C@@H](CN(C)C(=O)C2CCCCC2)[C@@H](C)CN([C@H](C)CO)C(=O)c2cc(NC(=O)c3ccccc3)ccc2O1
targetDesc: Protein S100-A4 (Homo sapiens)
reading: 5.47

compound: CCC(=O)Nc1ccc2c(c1)C(=O)N(C)C[C@H](OC)[C@@H](C)CN(C(=O)c1cnccn1)[C@@H](C)CO2
targetDesc: Protein S100-A4 (Homo sapiens)
reading: 10.3

compound: CCCNC(=O)[C@@H]1[C@@H](CO)[C@@H]2Cn3c(cccc3=O)[C@H]1N2C(=O)C1CCC1
targetDesc: Protein S100-A4 (Homo sapiens)
reading: 6.67

compound: CO[C@H]1CN(C)C(=O)c2ccc(NS(C)(=O)=O)cc2OC[C@H](C)N(C(=O)C2CCC2)C[C@H]1C
targetDesc: Protein S100-A4 (Homo sapiens)
reading: 3.67
